Below is a list of entries, each paired with its recorded growth value.
- System: NCI/ADR-RES ovarian
- METHOD NOTES: NCI-60 one-dose screen, 48 h (100 = growth as untreated, 0 = no growth, -100 = all killed)
- STATED CONDITIONS: 10 µM unless noted
About 83,000 compounds went through this panel and 20% of them were active in at least one assay; those are over-represented in the sample as a whole.
MEASUREMENT LABEL: growth (%)

In [3]: df
Out[3]:
                                    compound  recorded_value
 0                                O=C1CNCCN1             106
 1  CCOC(=O)N1CCN(CCCCOc2ccc(C(C)(C)CC)cc2)CC1            88.2
 2  Oc1cc(/C=C/c2nc(N3CCOCC3)c3cc(Cl)c(Cl)cc3n2)cc(O)c1O             100
 3  Cn1c(=O)c2c(ncn2CCC(=O)Nc2ccc(F)cc2)n(C)c1=O             106
 4  Clc1ccc2[nH]cc(-c3nc(-c4c[nH]c5ncccc45)cs3)c2c1            38.7
 5  COc1cc(/C=N/Nc2ncnc3c2c(C)nn3-c2ccc(F)cc2)ccc1O            95.7
 6  COC(=O)[C@]12CC[C@@H](C(C)=O)[C@@H]1[C@H]1CC[C@@H]3[C@@]4(C)C/C(=C/c5cccnc5)C(=O)C(C)(C)[C@@H]4CC[C@@]3(C)[C@]1(C)CC2            52.5
 7  C=C(C)[C@@H]1CC[C@]2(C(=O)OC)CC[C@]3(C)[C@H](CC[C@@H]4[C@@](C)(CC/C(N)=N/O)[C@H](C(=C)C)CC[C@]43C)[C@@H]12             101
 8  O=C1OC(c2ccc(Cl)c(Cl)c2)=C/C1=C/c1cccc([N+](=O)[O-])c1             104
 9  CC(=O)NC1=C(C#N)C(c2ccccc2Cl)c2c(ccc3ccccc23)O1 (configuration not stated)            33.8
10  CCOC(=O)C1OC1(c1ccccc1)c1ccccc1 (configuration not stated)             105
11  Fc1ccc(Nc2nc(Nc3ccc(-c4nc5ccccc5[nH]4)cc3)nc(N3CCCC3)n2)cc1              63
12  Cc1cc(C)n(Cc2cc(C(C)(C)C)cc(C(C)(C)C)c2)c(=O)c1C#N            96.7
13  COc1cc(/C=C2\C(=O)N(CC(O)COc3cc(O)c4c(=O)cc(-c5ccccc5)oc4c3)c3ccccc32)cc(OC)c1O (configuration not stated)            87.5
14  COc1ccc(NC(=S)N/N=C/c2ccccc2SSCCC(=O)OC[C@H]2O[C@H](O)[C@H](O)[C@@H](O)[C@@H]2O)cc1            59.7
15  N#C/C(=C\c1ccc(-c2ccccc2)o1)c1nc(-c2ccco2)cs1            95.5
16  O=C(N/N=C/c1ccccc1SSc1ccccc1/C=N/NC(=O)c1ccccc1)c1ccccc1            9.77

* * *

- Tested on: RXF 393 renal
- METHOD NOTES: NCI-60 one-dose screen, 48 h
- STATED CONDITIONS: 10 µM unless noted
The panel holds about 83,000 compounds, 20% with a hit somewhere; the sample as a whole holds those more often. Active and inactive are the calls of the source. How the source made its calls: active means growth percent below 10; inactive means the rest.
Labels: YES = active, NO = inactive

MOLECULE	EXPERIMENTAL TARGET	ASSIGNED CLASS
CC1(C)CC[C@]2(C(=O)Nc3ccccn3)CC[C@]3(C)C(=CC[C@@H]4[C@@]5(C)C/C(=C/c6ccncc6)C(=O)C(C)(C)[C@@H]5CC[C@]43C)[C@@H]2C1	RXF 393 renal	YES
N#CC1c2ccccc2-c2ccccc2N1C(=O)c1ccccc1 (centres undefined)	RXF 393 renal	NO
CCOC(=O)C/C(=C\c1ccccc1)C(C)=O	RXF 393 renal	NO
C#CCn1c(C)cc(C)c(C#N)c1=O	RXF 393 renal	NO
COc1ccc(-c2cc(=O)oc3ccc(Cl)cc23)cc1F	RXF 393 renal	NO
Cc1cccc(C)c1NC(=O)CSC(=S)N1CCCCC1	RXF 393 renal	NO
Nc1nc2c3ccncc3cc(-c3cccc(Cl)c3)c2c2cnccc12	RXF 393 renal	NO
O=C1CCCC=CC[C@H]2C=C(Cl)C(=O)C2=CC[C@H](CCCCC(F)(F)F)OC(=O)CCCC=CC[C@H]2C=C(Cl)C(=O)C2=CC[C@H](CCCCC(F)(F)F)OC(=O)CCCC=CC[C@H]2C=C(Cl)C(=O)C2=CC[C@H](CCCCC(F)(F)F)O1	RXF 393 renal	NO
Fc1ccc(Nc2nc(Nc3ccc(-c4nc5ccccc5[nH]4)cc3)nc(N3CCCC3)n2)cc1	RXF 393 renal	NO

* * *

- System: EKVX NSCLC
- METHOD NOTES: NCI-60 one-dose screen, 48 h
- STATED CONDITIONS: 10 µM unless noted
About 83,000 compounds went through this panel and 20% of them were active in at least one assay; those are over-represented in the sample as a whole. Active and inactive are the calls of the source. How the source made its calls: active means growth percent below 10; inactive means the rest.
Labels: 1.0 (active), 0.0 (inactive)

SMILES REPR	ASSIGNED CLASS
COc1cc2nc(Cl)nc(Nc3cccc(C(=O)/C=C/c4ccc(Br)cc4)c3)c2cc1OC	0.0
Cc1cc2nc3c4cc(O)ccc4n(CCN(C)C)c3nc2cc1C	1.0
Cc1ccc(-c2ccc(/C=C(\C#N)c3nc(-c4ccco4)cs3)o2)cc1	0.0
COC(=O)[C@]12CC[C@@H](C)[C@H](C)[C@@H]1C1=CC[C@@H]3[C@@]4(C)C[C@@H](OC(C)=O)[C@H](OC(C)=O)[C@@](C)(COC(C)=O)[C@@H]4[C@H](O)C[C@@]3(C)[C@]1(C)CC2	0.0

* * *

- Tested on: MDA-MB-435 melanoma
- METHOD NOTES: NCI-60 one-dose screen, 48 h (100 = growth as untreated, 0 = no growth, -100 = all killed)
- STATED CONDITIONS: 10 µM unless noted
The panel holds about 83,000 compounds, 20% with a hit somewhere; the sample as a whole holds those more often.
Binarize growth at 90%; below is 1, at or above is -1.

COMPOUND	ASSIGNED CLASS
CC(Cc1ccco1)C(=O)NC(N)=O (centres undefined)	-1
COc1cc(/C=C/c2cc(/C=C/c3ccc(O)c(OC)c3)n(-c3ccccc3)c(=O)n2)ccc1O	1
CC(=O)c1c(C)[nH]c(-c2nc3ccc(N4CCN(C)CC4)cc3[nH]2)c1-c1ccc(OCC2CCOCC2)cc1	1
COc1ccc2[nH]c(-c3ccc(Cl)cc3)cc(=O)c2c1	-1
CCN1CCN(C(=O)[C@@]2(C)CC[C@]3(C)CC[C@]4(C)C(=CC(=O)[C@@H]5[C@@]6(C)CC[C@H](OC7C[C@@H](O)[C@@H](O)C(C)O7)C(C)(C)[C@@H]6CC[C@]54C)[C@@H]3C2)CC1 (some centres undefined)	1
COc1ccc(-c2cc(/C=C/C(=O)c3ccc(N)cc3)[nH]n2)cc1	1
Nc1c2c(nc3ccc(Cl)cc13)CC(c1ccc(O)cc1)CC2=O (centres undefined)	1
CC(=O)N1N=C(c2ccc(C)cc2)CC1c1ccc(Oc2ccc(Br)cc2)cc1 (centres undefined)	-1
C[C@H]1OC(=O)/C=C/[C@@H](O)[C@@H](O)CCCCCCCC[C@@H]1O	-1

* * *

- Test system: EKVX NSCLC
- METHOD NOTES: NCI-60 one-dose screen, 48 h (100 = growth as untreated, 0 = no growth, -100 = all killed)
- STATED CONDITIONS: 10 µM unless noted
The panel holds about 83,000 compounds, 20% with a hit somewhere; the sample as a whole holds those more often.
MEASUREMENT LABEL: growth (%)

In [3]: df
Out[3]:
                                   compound  measurement_label  recorded_value
0   NC1=NN(c2ccccc2)C(=O)/C1=C/c1ccc(Cl)cc1             growth              96
1  O=S(=O)(NCCNc1cc(-c2cn(-c3ccccc3)nc2-c2cccc(O)c2)ccn1)c1ccc(F)cc1             growth            56.1
2       COc1ccc(NC(=O)c2ccoc2COc2ccccc2)cc1             growth            94.7
3  CCC(CC)C(=O)OC(C)COc1ccc(C(C)(C)C)cc1 (stereo not given)             growth             105
4  Clc1ccccc1-c1nc(Nc2nc3ccccc3s2)nc(C(Cl)(Cl)Cl)n1             growth              54
5  C=C1C(=O)O[C@H]2[C@H]1CC/C(COC(=O)NCc1cc3ccccc3[nH]1)=C\CC[C@@]1(C)O[C@@H]21             growth            54.7
6  N#C/C(=C\c1ccc(-c2ccccc2)o1)c1nc(-c2ccco2)cs1             growth            37.3
7  O=C1c2cc3c(cc2-c2c1c1ccc(Cl)cc1c(=O)n2C[C@H](O)[C@@H](O)[C@H](O)CO)OCO3             growth            20.5
8            O=C(O)c1cccc2c1-c1ccc(Cl)cc1C2             growth             110
9       Cc1cccc(C)c1NCc1nc(-c2ccccc2)n[nH]1             growth              95
